test: reversal of MRP1-mediated doxorubicin resistance, pilot screen, H69AR cells, doxorubicin co-treatment (AID 601); conditions: H69AR cells + 2 uM doxorubicin, CellTiter-Glo, 72 h; measured here: viability with 2 uM doxorubicin; at 10 µM; stronger effect = lower value
valueType: viability (%)
Write the value in % as a bare number.

Look up viability: NS(=O)(=O)c1cc2c(cc1Cl)NC(CSCc1ccccc1)=NS2(=O)=O 89.6

Look up viability: O=C(NCC1COc2ccccc2O1)c1ccc(NC(=O)c2ccco2)cc1 (stereo unspecified) 92.4

Look up viability: CN1C(C(=O)Nc2ccccn2)=C(O)c2ccccc2S1(=O)=O 87.7

Look up viability: Cc1noc(NS(=O)(=O)c2ccc(N)cc2)c1C 89.1

Look up viability: CS(=O)(=O)N(CC(=O)N1CCc2ccccc2C1)c1ccc2c(c1)OCO2 87.8

Look up viability: CCOCCCn1c(=NC(C)=O)c(C(=O)OCC)cc2c(=O)n3ccccc3nc21 47.4

Look up viability: COc1ccc(-c2c(=O)n(OCc3ccccn3)c3ccccc3[n+]2[O-])cc1OC 91.6

Look up viability: COCc1nnc(NC(=O)c2ccc(NC(C)=O)cc2)s1 90.2

Look up viability: Nc1nc(SCc2nc3scc(-c4cccs4)c3c(=O)[nH]2)n[nH]1 97.3

Look up viability: Cc1cc2ccccc2n1CCNC(=O)c1ccc(S(=O)(=O)N2CCOCC2)cc1 97.8

Look up viability: CCOc1nc(OCC)nc(N2CCC(C)CC2)n1 95.4

Look up viability: Cc1cn2c(-c3ccncc3)nnc2s1 92.7

Look up viability: Cc1cccc(N(C)C(=O)c2coc(=O)c3ccccc23)c1 88.7

Look up viability: Cc1ccc(-n2ncc3c(=O)n(CC(=O)N4CCCc5ccccc54)cnc32)cc1C 101

Look up viability: CCN(c1ccccc1)S(=O)(=O)c1ccc(F)cc1C 83.2

Look up viability: CCN(CC)c1nc(N(CC)CC)[nH]c(=O)n1 92.6
